target: human mGlu5a receptor (Homo sapiens (Human), UniProt P41594); experiment: Intracellular Ca2+ mobilization assay (mGlu5 PAM); assay type: cell-based; conditions: maximal response in % of the maximal stimulatory effect obtained with saturating concentrations of L-glutamate; read-out: Eff. (%)
Sequence (P41594 other isoform, or with tags, fused parts or gaps): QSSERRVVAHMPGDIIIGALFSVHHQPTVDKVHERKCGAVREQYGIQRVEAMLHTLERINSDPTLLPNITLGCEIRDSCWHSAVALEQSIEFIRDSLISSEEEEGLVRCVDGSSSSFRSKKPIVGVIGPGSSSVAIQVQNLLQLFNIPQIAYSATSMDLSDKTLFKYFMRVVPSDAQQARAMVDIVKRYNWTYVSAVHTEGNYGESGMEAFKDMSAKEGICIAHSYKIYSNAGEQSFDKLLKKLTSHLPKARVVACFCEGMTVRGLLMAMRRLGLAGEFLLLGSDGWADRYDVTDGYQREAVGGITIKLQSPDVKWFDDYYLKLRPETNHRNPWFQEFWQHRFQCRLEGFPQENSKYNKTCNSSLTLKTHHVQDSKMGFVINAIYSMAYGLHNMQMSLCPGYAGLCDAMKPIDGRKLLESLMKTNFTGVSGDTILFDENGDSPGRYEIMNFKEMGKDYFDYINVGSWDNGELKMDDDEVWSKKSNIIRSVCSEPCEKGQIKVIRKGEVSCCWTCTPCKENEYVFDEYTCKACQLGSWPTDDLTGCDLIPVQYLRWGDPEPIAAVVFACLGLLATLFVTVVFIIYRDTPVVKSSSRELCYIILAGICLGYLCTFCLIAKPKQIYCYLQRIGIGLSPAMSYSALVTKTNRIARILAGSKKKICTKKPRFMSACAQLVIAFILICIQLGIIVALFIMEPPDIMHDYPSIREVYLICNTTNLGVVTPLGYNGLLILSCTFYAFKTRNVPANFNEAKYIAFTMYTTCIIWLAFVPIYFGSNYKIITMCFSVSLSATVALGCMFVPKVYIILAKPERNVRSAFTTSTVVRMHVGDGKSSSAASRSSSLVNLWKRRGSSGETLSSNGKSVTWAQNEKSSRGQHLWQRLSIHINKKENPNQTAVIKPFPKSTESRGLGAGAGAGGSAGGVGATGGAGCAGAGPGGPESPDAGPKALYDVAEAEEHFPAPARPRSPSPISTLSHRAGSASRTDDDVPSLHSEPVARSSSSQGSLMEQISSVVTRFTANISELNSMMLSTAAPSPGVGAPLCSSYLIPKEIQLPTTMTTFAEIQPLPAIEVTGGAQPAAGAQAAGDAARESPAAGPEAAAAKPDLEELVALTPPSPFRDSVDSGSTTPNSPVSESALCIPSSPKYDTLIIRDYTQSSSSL
valueType: Emax (%)
All answers are understood in %, so give the number only.

Solved entries:
INSERT INTO measurements (molecule, valuetype, unitsofmeasure, endpointresult) VALUES
  ('CN1C(=O)[C@@H](c2ncc(C#Cc3ccccc3)cn2)[C@@H]2CCC[C@@H]21 (racemic) [Example 33]', 'Emax', '%', 52),
  ('CN1CCCCC(c2ccc(C#Cc3ccccc3)cn2)C1=O (racemic) [Example 22]', 'Emax', '%', 59);

(Q) Request the reported Emax associated with CN1C(=O)C(c2ncc(C#Cc3cccc(F)c3)cn2)CCC1(C)C (racemic) [Example 17]
(A) 80

###

target: human mGlu5a receptor (Homo sapiens (Human), UniProt P41594); assay: Intracellular Ca2+ mobilization assay (mGlu5 PAM); format: cell-based; conditions: HEK-293 cells stably transfected with human mGlu5a; L-glutamate added at EC20 (typically around 80 μM)
# label = criterion met if EC50 < 100 nM else criterion not met

INSERT INTO results (compound, classname) VALUES
  ('CN1CCCCC(c2ccc(C#Cc3ccc(F)cc3)cn2)C1=O (racemic)', 'criterion met');

(Q) Does the reported EC50 of the following compound sit strictly below 100 nM? CN1C(=O)C(c2ccc(C#Cc3ccc(F)cc3)nn2)CC1(C)C (stereo not drawn)
(A) criterion not met

(Q) Does the reported EC50 of the following compound sit strictly below 100 nM? CN1C(=O)[C@@H](c2ccc(C#Cc3ccccc3)cn2)[C@@H]2CCC[C@@H]21 (racemic) [Example 27]
(A) criterion met

(Q) Does the reported EC50 of the following compound sit strictly below 100 nM? CN1C(=O)[C@@H](c2ccc(C#Cc3ccccc3)cn2)[C@@H]2CCCC[C@@H]21 [Example 36]
(A) criterion met

(Q) Does the reported EC50 of the following compound sit strictly below 100 nM? CN1C(=O)C(c2ncc(C#Cc3cccc(F)c3)cn2)CCC1(C)C (racemic)
(A) criterion not met

(Q) Does the reported EC50 of the following compound sit strictly below 100 nM? CN1C(=O)C(c2ncc(C#Cc3cccc(F)c3)cn2)CC1(C)C (racemic)
(A) criterion not met

(Q) Does the reported EC50 of the following compound sit strictly below 100 nM? CN1C(=O)C(c2ccc(C#Cc3ccccc3)nn2)CC1(C)C (racemic)
(A) criterion met

(Q) Does the reported EC50 of the following compound sit strictly below 100 nM? CN1CCCC[C@@H](c2ccc(C#Cc3ccccc3)cn2)C1=O (single isomer, unassigned)
(A) criterion met
